Assay: logP determination by HPLC (EEC Directive 79/831 Annex V.A8)
Format: physicochemical
Conditions: pH 2.3; HPLC gradient method, acetonitrile/0.1% aqueous phosphoric acid
Experimental: The logP values were determined in accordance with EEC Directive 79/831 Annex V.A8 by HPLC (gradient method, acetonitrile/0.1% aqueous phosphoric acid).
quantity: chromatographic logP

I. FC(F)=C(F)CCCCSc1nc2ccccc2s1
II. O=S(=O)(CCCCC(F)=C(F)F)c1nc2ccccc2s1
From the recorded data, which exceeds the other in chromatographic logP: I or II ? Pick one and reply with its label.
I
